assayTarget: TcG6PDH wildtype (Trypanosoma cruzi)
Sequence (Q1WBU6 entry or part of it): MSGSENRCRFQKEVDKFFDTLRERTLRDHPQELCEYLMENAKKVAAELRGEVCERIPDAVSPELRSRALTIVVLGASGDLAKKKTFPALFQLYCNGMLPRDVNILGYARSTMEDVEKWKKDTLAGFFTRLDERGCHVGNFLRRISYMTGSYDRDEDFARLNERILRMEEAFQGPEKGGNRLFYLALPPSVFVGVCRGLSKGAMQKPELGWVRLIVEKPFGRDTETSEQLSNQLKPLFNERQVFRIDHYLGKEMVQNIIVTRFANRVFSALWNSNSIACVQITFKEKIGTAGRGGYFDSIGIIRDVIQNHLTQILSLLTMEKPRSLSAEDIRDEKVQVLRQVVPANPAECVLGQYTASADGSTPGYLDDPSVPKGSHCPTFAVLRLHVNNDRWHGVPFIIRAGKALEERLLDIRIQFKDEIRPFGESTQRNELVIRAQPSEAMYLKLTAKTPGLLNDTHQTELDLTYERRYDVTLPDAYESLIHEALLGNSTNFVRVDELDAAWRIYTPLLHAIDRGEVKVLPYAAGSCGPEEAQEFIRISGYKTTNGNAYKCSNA
protocolDescription: Inhibitor assay with wildtype TcG6PDH (NADPH formation at 340 nm)
Format: biochemical
particulars: read-out: G6PDH Activity [%] ± SD at 30 µM Compound
experimentalEndpoint: activity at 30 µM (%)
Kindly provide the numeric value in % only, without the unit symbol.

The cases that follow already have their activity at 30 µM on record.
>>> print(df.to_string())
                                   compound  experimentalendpoint  reportedmeasurement
0  CCNC(=O)N[C@H]1CC[C@@]2(C)C(CCC3C2CC[C@]2(C)C(=O)CCC32)C1 (some centres unmarked) [Compound 1]     activity at 30 µM                    7
1  C[C@]12CC[C@H](NS(N)(=O)=O)CC1CCC1C2CC[C@@]2(C)C1CC[C@@H]2C(=O)CO (some centres unmarked) [Compound 3]     activity at 30 µM                   30

The compound C[C@]12CC[C@H](NS(N)(=O)=O)CC1CCC1C2CC[C@]2(C)C(=O)CCC12 (some centres unmarked) [Compound 2] showed activity at 30 µM equal to 9

The compound C[C@]12CC[C@H](O)CC1CCC1C2CC[C@@]2(C)C1CC[C@@H]2C(=O)CO (some centres unmarked) [Compound 4] showed activity at 30 µM equal to 43

The compound C[C@]12CC[C@H](O)C[C@@H]1CC[C@@H]1[C@@H]2CC[C@]2(C)C(=O)CC[C@@H]12 [EA, epiandrosterone, reference compound] showed activity at 30 µM equal to 12
